system under test: Glutamate receptor 3 (Rattus norvegicus, UniProt P19492)
Sequence (P19492 whole entry): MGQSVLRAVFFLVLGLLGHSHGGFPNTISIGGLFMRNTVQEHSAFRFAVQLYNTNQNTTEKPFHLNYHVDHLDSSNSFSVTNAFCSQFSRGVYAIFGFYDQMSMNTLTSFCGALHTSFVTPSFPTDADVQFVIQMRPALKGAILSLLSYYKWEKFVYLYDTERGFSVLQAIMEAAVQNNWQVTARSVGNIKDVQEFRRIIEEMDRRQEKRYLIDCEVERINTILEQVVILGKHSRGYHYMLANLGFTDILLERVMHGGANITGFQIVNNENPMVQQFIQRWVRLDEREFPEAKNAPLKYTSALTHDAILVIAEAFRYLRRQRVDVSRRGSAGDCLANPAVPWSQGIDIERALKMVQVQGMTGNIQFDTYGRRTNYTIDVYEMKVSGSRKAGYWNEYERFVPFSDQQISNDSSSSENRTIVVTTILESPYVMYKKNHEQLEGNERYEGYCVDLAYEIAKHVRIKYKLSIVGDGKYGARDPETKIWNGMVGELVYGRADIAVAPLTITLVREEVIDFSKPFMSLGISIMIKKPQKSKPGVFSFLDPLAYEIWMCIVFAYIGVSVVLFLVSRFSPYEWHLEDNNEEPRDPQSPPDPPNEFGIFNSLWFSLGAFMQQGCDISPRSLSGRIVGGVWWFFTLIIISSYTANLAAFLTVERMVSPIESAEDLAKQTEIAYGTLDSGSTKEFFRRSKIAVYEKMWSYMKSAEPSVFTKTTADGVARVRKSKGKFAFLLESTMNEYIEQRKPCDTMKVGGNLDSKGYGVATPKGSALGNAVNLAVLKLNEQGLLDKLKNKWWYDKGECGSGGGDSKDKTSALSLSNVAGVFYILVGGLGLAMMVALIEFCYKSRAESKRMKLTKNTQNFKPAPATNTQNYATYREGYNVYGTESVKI
measurement protocol: Displacement of [3H[AMPA from rat recombinant GluA3o expressed in […] cells
pKi: −log10 of the molar value.
pKi for assorted compounds

| compound | bound operator | pKi |
| --- | --- | --- |
| NC(Cc1onc(O)c1Cl)C(=O)O (racemic) | = | 4.56 |
| O=C(O)C1NCCc2c1o[nH]c2=O (racemic) | = | 5.34 |
| N[C@H](C(=O)O)c1cc(O)no1 [IBOTENIC ACID] | < | 4.00 |
| O=C(O)[C@H]1Cc2c(O)noc2CN1 | = | 6.08 |

* * *

measurement protocol: Displacement of [3H]KA from kainate receptor in rat brain membrane
Format: cell membranes
IC50 for assorted compounds

| compound | IC50 |
| --- | --- |
| N[C@H](C(=O)O)c1cc(O)no1 | 22 µM |
| O=C(O)C1NCCc2c1o[nH]c2=O (racemic) | > 100 µM |
| NC(Cc1onc(O)c1Cl)C(=O)O (racemic) | > 100 µM |
| O=C(O)[C@H]1Cc2c(O)noc2CN1 | > 100 µM |

* * *

system under test: Glutamate receptor 2 (Rattus norvegicus, UniProt P19491)
Sequence (P19491 whole entry): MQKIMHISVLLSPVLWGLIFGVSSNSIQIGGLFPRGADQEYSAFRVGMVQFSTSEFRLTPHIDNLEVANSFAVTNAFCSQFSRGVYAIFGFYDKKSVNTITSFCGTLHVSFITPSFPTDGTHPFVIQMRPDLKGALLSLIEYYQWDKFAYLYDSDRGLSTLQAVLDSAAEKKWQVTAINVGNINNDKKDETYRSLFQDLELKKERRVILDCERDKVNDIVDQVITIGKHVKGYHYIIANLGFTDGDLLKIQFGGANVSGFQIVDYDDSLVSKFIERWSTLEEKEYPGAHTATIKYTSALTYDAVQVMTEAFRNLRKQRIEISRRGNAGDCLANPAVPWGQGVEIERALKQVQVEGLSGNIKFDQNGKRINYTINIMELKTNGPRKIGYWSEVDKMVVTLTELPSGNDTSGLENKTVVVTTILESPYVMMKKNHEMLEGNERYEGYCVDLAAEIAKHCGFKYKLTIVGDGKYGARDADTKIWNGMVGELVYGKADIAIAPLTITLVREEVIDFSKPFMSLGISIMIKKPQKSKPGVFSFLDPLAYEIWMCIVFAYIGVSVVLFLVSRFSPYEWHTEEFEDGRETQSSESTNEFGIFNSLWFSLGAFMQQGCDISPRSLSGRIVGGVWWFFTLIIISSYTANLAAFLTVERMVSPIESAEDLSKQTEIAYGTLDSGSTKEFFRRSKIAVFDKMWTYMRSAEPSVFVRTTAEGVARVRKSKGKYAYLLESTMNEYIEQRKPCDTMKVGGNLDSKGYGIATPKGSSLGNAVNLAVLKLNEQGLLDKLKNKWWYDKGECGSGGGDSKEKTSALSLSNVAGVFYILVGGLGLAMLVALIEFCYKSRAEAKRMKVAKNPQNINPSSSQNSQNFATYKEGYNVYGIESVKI
measurement protocol: Agonist activity at rat recombinant GluA2(Q)i expressed in Xenopus laevis oocytes by two-electrode voltage clamp assay
pEC50: −log10 of the molar value.
pEC50 for assorted compounds
experimental endpoint: pEC50

| compound | numeric value |
| --- | --- |
| O=C(O)C1NCCc2c1o[nH]c2=O (racemic) | 4.46 |
| O=C(O)[C@H]1Cc2c(O)noc2CN1 | 4.65 |

* * *

measurement protocol: Displacement of [3H]AMPA from AMPA receptor in rat brain membrane
Assay type: cell membranes
pIC50: −log10 of the molar value.
experimental endpoint: pIC50

| compound | experimental endpoint | bound operator | numeric value |
| --- | --- | --- | --- |
| N[C@H](C(=O)O)c1cc(O)no1 [IBOTENIC ACID] | pIC50 | < | 4.00 |
| O=C(O)C1NCCc2c1o[nH]c2=O (racemic) | pIC50 | = | 6.43 |
| NC(Cc1onc(O)c1Cl)C(=O)O (racemic) | pIC50 | = | 6.66 |
| O=C(O)[C@H]1Cc2c(O)noc2CN1 | pIC50 | = | 6.33 |

* * *

system under test: Glutamate receptor 1 (Rattus norvegicus, UniProt P19490)
Sequence (P19490 whole entry): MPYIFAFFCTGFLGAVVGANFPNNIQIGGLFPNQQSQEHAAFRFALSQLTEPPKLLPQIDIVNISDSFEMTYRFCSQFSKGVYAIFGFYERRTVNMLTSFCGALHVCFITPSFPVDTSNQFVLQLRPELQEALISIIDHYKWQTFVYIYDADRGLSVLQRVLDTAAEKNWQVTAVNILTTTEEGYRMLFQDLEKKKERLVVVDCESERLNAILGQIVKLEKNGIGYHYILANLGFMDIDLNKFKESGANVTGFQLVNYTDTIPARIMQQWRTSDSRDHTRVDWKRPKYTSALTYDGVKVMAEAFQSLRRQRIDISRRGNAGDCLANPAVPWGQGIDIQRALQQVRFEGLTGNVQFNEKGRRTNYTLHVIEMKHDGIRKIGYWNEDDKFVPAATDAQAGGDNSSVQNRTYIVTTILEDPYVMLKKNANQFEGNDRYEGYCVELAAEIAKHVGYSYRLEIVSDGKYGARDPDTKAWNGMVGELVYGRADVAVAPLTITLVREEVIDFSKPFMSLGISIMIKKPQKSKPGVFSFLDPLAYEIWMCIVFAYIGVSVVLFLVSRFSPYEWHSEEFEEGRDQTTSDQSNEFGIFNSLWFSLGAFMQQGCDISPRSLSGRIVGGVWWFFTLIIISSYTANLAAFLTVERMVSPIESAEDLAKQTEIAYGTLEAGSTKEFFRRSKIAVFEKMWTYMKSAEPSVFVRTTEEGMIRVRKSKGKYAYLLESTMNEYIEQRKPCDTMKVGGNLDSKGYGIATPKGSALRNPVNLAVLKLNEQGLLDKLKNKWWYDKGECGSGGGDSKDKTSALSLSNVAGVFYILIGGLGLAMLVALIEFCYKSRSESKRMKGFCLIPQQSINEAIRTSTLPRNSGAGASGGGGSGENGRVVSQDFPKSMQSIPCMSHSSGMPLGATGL
measurement protocol: Agonist activity at rat recombinant GluA1i expressed in Xenopus laevis oocytes by two-electrode voltage clamp assay
pEC50: −log10 of the molar value.
experimental endpoint: pEC50

| compound | numeric value |
| --- | --- |
| O=C(O)C1NCCc2c1o[nH]c2=O (racemic) | 4.08 |
| NC(Cc1onc(O)c1Cl)C(=O)O (racemic) | 5.33 |

* * *

system under test: Glutamate receptor ionotropic, kainate 1 (Rattus norvegicus, UniProt P22756)
Sequence (P22756 whole entry): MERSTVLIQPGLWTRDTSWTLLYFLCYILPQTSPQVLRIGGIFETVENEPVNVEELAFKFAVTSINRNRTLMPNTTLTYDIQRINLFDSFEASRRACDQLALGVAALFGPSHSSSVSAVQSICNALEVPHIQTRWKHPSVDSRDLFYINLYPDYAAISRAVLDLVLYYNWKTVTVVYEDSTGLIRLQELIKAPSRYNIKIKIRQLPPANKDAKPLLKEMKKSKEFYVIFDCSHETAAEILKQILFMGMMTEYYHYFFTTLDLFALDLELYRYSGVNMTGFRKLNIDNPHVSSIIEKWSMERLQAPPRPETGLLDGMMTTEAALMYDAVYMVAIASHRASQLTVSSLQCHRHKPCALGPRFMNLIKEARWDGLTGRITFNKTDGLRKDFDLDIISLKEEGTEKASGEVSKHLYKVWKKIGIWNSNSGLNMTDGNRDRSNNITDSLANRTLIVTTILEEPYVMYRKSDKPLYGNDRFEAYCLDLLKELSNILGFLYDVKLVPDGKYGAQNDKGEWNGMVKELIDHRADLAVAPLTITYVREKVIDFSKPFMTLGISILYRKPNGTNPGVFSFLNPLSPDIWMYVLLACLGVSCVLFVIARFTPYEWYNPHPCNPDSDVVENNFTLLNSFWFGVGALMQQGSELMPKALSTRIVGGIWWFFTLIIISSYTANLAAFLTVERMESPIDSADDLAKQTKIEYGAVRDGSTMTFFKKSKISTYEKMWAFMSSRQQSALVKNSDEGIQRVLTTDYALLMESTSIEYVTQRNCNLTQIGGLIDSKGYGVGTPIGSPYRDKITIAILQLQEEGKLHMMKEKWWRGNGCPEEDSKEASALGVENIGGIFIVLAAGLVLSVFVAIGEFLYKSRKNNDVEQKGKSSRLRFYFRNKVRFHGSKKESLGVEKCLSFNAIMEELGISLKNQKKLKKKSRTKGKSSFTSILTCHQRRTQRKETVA
measurement protocol: Displacement of [3H[SYM2081 from rat recombinant GluK1(Q)1b expressed in […] cells
Format: cell-based
pKi: −log10 of the molar value.
experimental endpoint: pKi

| molecule | numeric value |
| --- | --- |
| N[C@H](C(=O)O)c1cc(O)no1 [IBOTENIC ACID] | 5.61 |
| NC(Cc1onc(O)c1Cl)C(=O)O (racemic) | 5.17 |
| O=C(O)[C@H]1Cc2c(O)noc2CN1 | 5.00 |
| O=C(O)C1NCCc2c1o[nH]c2=O (racemic) | 5.35 |

Provenance of the data: ChEMBL document CHEMBL1629540
